- EXPERIMENTAL TARGET: Aminopeptidase N (Plasmodium falciparum (isolate 3D7))
- EXPERIMENTAL PROTOCOL: malaria alanyl aminopeptidase activity blockers – biochemical, fluorogenic H-Leu-NHMec substrate, 1536-well (AID 1445);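 further: plate controls were DMSO full reaction for no effect and no enzyme background for full effect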
- CONDITION DESCRIPTION: recombinant M1AAP, H-Leu-NHMec fluorogenic kinetic assay; at 30 µM, stronger effect = higher value unless noted
In all, about 220,000 compounds went through this assay and about 910 (0.41%) were called active. The sample as a whole holds a higher share of actives than the screen did. Results with a measured potency or affinity are listed apart.
Entries annotated with measured inhibition
QUANTITY KIND: inhibition (%)

[[record]]
smiles_representation = "COc1ccc(OC)c(S(=O)(=O)N2CCC(C(=O)NCCc3ccccc3)CC2)c1"
experimental_target = "Aminopeptidase N (Plasmodium falciparum (isolate 3D7))"
unit_of_measure = "%"
assay_value = -0.81

[[record]]
smiles_representation = "COc1ccc(OC)c(S(=O)(=O)N2CCC(C(=O)NCc3ccccc3OC)CC2)c1"
experimental_target = "Aminopeptidase N (Plasmodium falciparum (isolate 3D7))"
unit_of_measure = "%"
assay_value = 3.04

[[record]]
smiles_representation = "COc1ccc(CCNC(=O)C2CCN(S(=O)(=O)c3cc(OC)ccc3OC)CC2)cc1"
experimental_target = "Aminopeptidase N (Plasmodium falciparum (isolate 3D7))"
unit_of_measure = "%"
assay_value = 14.3

[[record]]
smiles_representation = "COc1ccc(S(=O)(=O)N2CCC(C(=O)NCCc3ccccc3)CC2)cc1OC"
experimental_target = "Aminopeptidase N (Plasmodium falciparum (isolate 3D7))"
unit_of_measure = "%"
assay_value = -1.88

[[record]]
smiles_representation = "Cc1cc(NC(=O)c2cncc(Br)c2)n(-c2ccccn2)n1"
experimental_target = "Aminopeptidase N (Plasmodium falciparum (isolate 3D7))"
unit_of_measure = "%"
assay_value = 1.7

[[record]]
smiles_representation = "Cc1ccc(NC(=O)CCNS(=O)(=O)c2cc(Br)cnc2N)c(Cl)c1"
experimental_target = "Aminopeptidase N (Plasmodium falciparum (isolate 3D7))"
unit_of_measure = "%"
assay_value = 6.45

[[record]]
smiles_representation = "O=C(COC(=O)Cc1ccc(F)cc1)NCc1ccco1"
experimental_target = "Aminopeptidase N (Plasmodium falciparum (isolate 3D7))"
unit_of_measure = "%"
assay_value = 4.03

[[record]]
smiles_representation = "CCOCCCNC(=O)CCC(=O)NNc1nc2ccccc2c2nc(C)nn12"
experimental_target = "Aminopeptidase N (Plasmodium falciparum (isolate 3D7))"
unit_of_measure = "%"
assay_value = 1.55

[[record]]
smiles_representation = "COc1ccc(OC)c(S(=O)(=O)N2CCC(C(=O)NCCc3ccc(OC)c(OC)c3)CC2)c1"
experimental_target = "Aminopeptidase N (Plasmodium falciparum (isolate 3D7))"
unit_of_measure = "%"
assay_value = -4.37

[[record]]
smiles_representation = "COc1ccc(S(=O)(=O)N2CCC(C(=O)NCc3ccccn3)CC2)cc1OC"
experimental_target = "Aminopeptidase N (Plasmodium falciparum (isolate 3D7))"
unit_of_measure = "%"
assay_value = 2.6


###

- EXPERIMENTAL TARGET: Aminopeptidase N (Plasmodium falciparum (isolate 3D7)) (UniProt O96935)
- Sequence (O96935 whole entry, looked up): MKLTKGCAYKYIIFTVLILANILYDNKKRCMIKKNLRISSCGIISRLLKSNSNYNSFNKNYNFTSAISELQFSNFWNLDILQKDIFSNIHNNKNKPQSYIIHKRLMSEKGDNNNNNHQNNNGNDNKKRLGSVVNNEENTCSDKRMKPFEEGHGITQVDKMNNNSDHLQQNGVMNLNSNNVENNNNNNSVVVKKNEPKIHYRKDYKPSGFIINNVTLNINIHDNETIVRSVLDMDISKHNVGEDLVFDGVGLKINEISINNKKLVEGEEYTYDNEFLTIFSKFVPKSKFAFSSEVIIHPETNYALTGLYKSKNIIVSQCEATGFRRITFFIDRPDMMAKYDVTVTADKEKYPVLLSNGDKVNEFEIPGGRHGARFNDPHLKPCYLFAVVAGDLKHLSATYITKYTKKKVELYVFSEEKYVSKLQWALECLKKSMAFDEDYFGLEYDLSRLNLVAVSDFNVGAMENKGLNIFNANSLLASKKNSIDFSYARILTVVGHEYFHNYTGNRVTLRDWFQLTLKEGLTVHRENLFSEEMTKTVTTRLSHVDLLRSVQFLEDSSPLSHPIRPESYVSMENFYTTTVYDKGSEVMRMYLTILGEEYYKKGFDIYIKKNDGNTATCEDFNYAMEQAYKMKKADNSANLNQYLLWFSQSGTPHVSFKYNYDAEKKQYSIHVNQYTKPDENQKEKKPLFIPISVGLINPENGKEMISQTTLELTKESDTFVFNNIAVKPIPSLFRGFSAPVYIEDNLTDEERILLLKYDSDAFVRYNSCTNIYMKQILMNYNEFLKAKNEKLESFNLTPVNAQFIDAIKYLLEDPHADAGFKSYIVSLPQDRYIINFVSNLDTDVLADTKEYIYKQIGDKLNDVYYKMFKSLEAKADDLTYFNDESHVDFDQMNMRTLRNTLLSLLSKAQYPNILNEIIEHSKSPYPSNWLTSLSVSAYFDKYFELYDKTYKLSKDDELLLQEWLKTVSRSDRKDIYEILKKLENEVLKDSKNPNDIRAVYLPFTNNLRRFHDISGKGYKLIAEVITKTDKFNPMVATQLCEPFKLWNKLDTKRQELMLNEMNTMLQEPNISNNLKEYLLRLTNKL
- EXPERIMENTAL PROTOCOL: malaria alanyl aminopeptidase activity blockers – biochemical, fluorogenic H-Leu-NHMec substrate, 1536-well (AID 1445);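 further: plate controls were DMSO full reaction for no effect and no enzyme background for full effect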
- CONDITION DESCRIPTION: recombinant M1AAP, H-Leu-NHMec fluorogenic kinetic assay; at 30 µM, stronger effect = higher value unless noted
Hit rate of the full screen: of about 220,000 compounds, about 910 (0.41%) were called active. The sample holds actives, similar compounds and a random draw of the others, so the mix is not that of the screen. Results with a measured potency or affinity are listed apart.
QUANTITY KIND: inhibition (%)

[[record]]
compound = "Cc1ccsc1/C=N/NC(=O)c1ccc([N+](=O)[O-])cc1"
experimental_target = "Aminopeptidase N (Plasmodium falciparum (isolate 3D7)) (UniProt O96935)"
quantity_kind = "inhibition"
unit_of_measure = "%"
assay_value = 4

[[record]]
compound = "CCOC(=O)C1=C(CN2CCSCC2)NC(=O)NC1c1ccc2c(c1)OCO2 (stereo not drawn)"
experimental_target = "Aminopeptidase N (Plasmodium falciparum (isolate 3D7)) (UniProt O96935)"
quantity_kind = "inhibition"
unit_of_measure = "%"
assay_value = -5.96

[[record]]
compound = "O=c1cc(-c2ccccc2)c2ccc(O)c(CN3CCCCC3)c2o1"
experimental_target = "Aminopeptidase N (Plasmodium falciparum (isolate 3D7)) (UniProt O96935)"
quantity_kind = "inhibition"
unit_of_measure = "%"
assay_value = 11.4

[[record]]
compound = "COc1cc(/C=C/C(=O)O)ccc1OCc1cnc(Cl)s1"
experimental_target = "Aminopeptidase N (Plasmodium falciparum (isolate 3D7)) (UniProt O96935)"
quantity_kind = "inhibition"
unit_of_measure = "%"
assay_value = 0.41

[[record]]
compound = "COc1cc(/C=C/C(=O)O)cc(S(=O)(=O)Nc2ccc(F)cc2)c1OC"
experimental_target = "Aminopeptidase N (Plasmodium falciparum (isolate 3D7)) (UniProt O96935)"
quantity_kind = "inhibition"
unit_of_measure = "%"
assay_value = 5.47

[[record]]
compound = "Cc1cc(NC(=O)c2ccc(N3CCCC3)c([N+](=O)[O-])c2)no1"
experimental_target = "Aminopeptidase N (Plasmodium falciparum (isolate 3D7)) (UniProt O96935)"
quantity_kind = "inhibition"
unit_of_measure = "%"
assay_value = -2.39

[[record]]
compound = "Cc1nc2ccc(Cl)cc2c(-c2ccccc2F)c1CC(=O)O"
experimental_target = "Aminopeptidase N (Plasmodium falciparum (isolate 3D7)) (UniProt O96935)"
quantity_kind = "inhibition"
unit_of_measure = "%"
assay_value = 16.3

[[record]]
compound = "Cn1cc(-c2nnnn2-c2ccc(Cl)cc2)c(=O)c2ccccc21"
experimental_target = "Aminopeptidase N (Plasmodium falciparum (isolate 3D7)) (UniProt O96935)"
quantity_kind = "inhibition"
unit_of_measure = "%"
assay_value = -1.66

[[record]]
compound = "CCOC(=O)c1cc(-c2ccccc2)n(CCC(=O)N2CCN(c3ccc(OC)cc3)CC2)c1C"
experimental_target = "Aminopeptidase N (Plasmodium falciparum (isolate 3D7)) (UniProt O96935)"
quantity_kind = "inhibition"
unit_of_measure = "%"
assay_value = 5.67

[[record]]
compound = "C[N+]1(CCCOC(=O)C2(c3ccccc3)CCCC2)CCOCC1"
experimental_target = "Aminopeptidase N (Plasmodium falciparum (isolate 3D7)) (UniProt O96935)"
quantity_kind = "inhibition"
unit_of_measure = "%"
assay_value = 12.4

[[record]]
compound = "C/C=C/c1ccc(OCCOc2ccc(C=O)cc2)c(OC)c1"
experimental_target = "Aminopeptidase N (Plasmodium falciparum (isolate 3D7)) (UniProt O96935)"
quantity_kind = "inhibition"
unit_of_measure = "%"
assay_value = 9.05

[[record]]
compound = "Cc1nc2ccc(Cl)cc2c(-c2ccccc2Cl)c1CC(=O)O"
experimental_target = "Aminopeptidase N (Plasmodium falciparum (isolate 3D7)) (UniProt O96935)"
quantity_kind = "inhibition"
unit_of_measure = "%"
assay_value = -0.5

[[record]]
compound = "C/C=C/c1ccc(OCCCCOc2ccc(OC)cc2)c(OC)c1"
experimental_target = "Aminopeptidase N (Plasmodium falciparum (isolate 3D7)) (UniProt O96935)"
quantity_kind = "inhibition"
unit_of_measure = "%"
assay_value = -1.18

[[record]]
compound = "Cc1cnc(C(=O)Nc2nc(-c3ccccc3)cs2)cn1"
experimental_target = "Aminopeptidase N (Plasmodium falciparum (isolate 3D7)) (UniProt O96935)"
quantity_kind = "inhibition"
unit_of_measure = "%"
assay_value = 7.19

[[record]]
compound = "Cc1ccc(C(=O)NCCN2CCNC2=O)cc1"
experimental_target = "Aminopeptidase N (Plasmodium falciparum (isolate 3D7)) (UniProt O96935)"
quantity_kind = "inhibition"
unit_of_measure = "%"
assay_value = -8.25

[[record]]
compound = "Clc1cccc(-c2ccc(CNCCCN3CCOCC3)o2)c1"
experimental_target = "Aminopeptidase N (Plasmodium falciparum (isolate 3D7)) (UniProt O96935)"
quantity_kind = "inhibition"
unit_of_measure = "%"
assay_value = 2.45

[[record]]
compound = "CN(C)CCCNS(=O)(=O)c1cc(Cl)c(Cl)cc1Cl"
experimental_target = "Aminopeptidase N (Plasmodium falciparum (isolate 3D7)) (UniProt O96935)"
quantity_kind = "inhibition"
unit_of_measure = "%"
assay_value = 0.71

[[record]]
compound = "O=C(Nc1ccccc1N1CCOCC1)c1cccnc1"
experimental_target = "Aminopeptidase N (Plasmodium falciparum (isolate 3D7)) (UniProt O96935)"
quantity_kind = "inhibition"
unit_of_measure = "%"
assay_value = -1.63

[[record]]
compound = "Cc1ccc(C(C(=O)NCc2ccco2)N(Cc2ccco2)C(=O)CNC(=O)c2ccco2)cc1 (stereo not drawn)"
experimental_target = "Aminopeptidase N (Plasmodium falciparum (isolate 3D7)) (UniProt O96935)"
quantity_kind = "inhibition"
unit_of_measure = "%"
assay_value = 19.3

[[record]]
compound = "COc1cc(/C=C/C(=O)O)cc(S(=O)(=O)Nc2cccc(SC)c2)c1OC"
experimental_target = "Aminopeptidase N (Plasmodium falciparum (isolate 3D7)) (UniProt O96935)"
quantity_kind = "inhibition"
unit_of_measure = "%"
assay_value = 9.82

[[record]]
compound = "COCCN(CCOC)Cc1c(O)ccc2c3c(c(=O)oc12)CCC3"
experimental_target = "Aminopeptidase N (Plasmodium falciparum (isolate 3D7)) (UniProt O96935)"
quantity_kind = "inhibition"
unit_of_measure = "%"
assay_value = 4.7

[[record]]
compound = "COc1cc(/C=C/C(=O)O)cc(S(=O)(=O)Nc2ccc3nc(C)sc3c2)c1OC"
experimental_target = "Aminopeptidase N (Plasmodium falciparum (isolate 3D7)) (UniProt O96935)"
quantity_kind = "inhibition"
unit_of_measure = "%"
assay_value = 3.42

[[record]]
compound = "COc1ccc(NC(=S)N(CCc2c(C)[nH]c3ccccc23)Cc2ccco2)cc1"
experimental_target = "Aminopeptidase N (Plasmodium falciparum (isolate 3D7)) (UniProt O96935)"
quantity_kind = "inhibition"
unit_of_measure = "%"
assay_value = -1.5


Recorded values, source PubChem BioAssay AID1445.
